# System: KB
# assay_procedure: Cytotoxicity against human KB cells after 72 hrs by methylene blue dye assay
# Format: functional, cell-based
recorded_endpoint: IC50 (µM)

[[record]]
compound = "CC1=CCC[C@H]2[C@@]1(C)[C@@H](OC(=O)C(=O)C(C)C)[C@H](OC(=O)c1cccnc1)[C@](C)(O)[C@]2(C)/C=C/C1=CC(=O)OC1"
measurement = 4.2

[[record]]
compound = "CC1=CCC[C@H]2[C@@]1(C)[C@@H](O)[C@H](OC(=O)c1cccnc1)[C@](C)(O)[C@]2(C)/C=C/C1=CC(=O)OC1"
measurement = 4.5

[[record]]
compound = "CC1=CCC[C@H]2[C@@]1(C)[C@@H](OC(=O)c1ccccc1)[C@H](O)[C@]1(C)O[C@@]3(COC(=O)C3)C[C@H](OC(=O)c3cccnc3)[C@]21C"
measurement = 4.7

[[record]]
compound = "COc1cc([C@@H]2c3cc4c(cc3[C@@H](O[C@@H]3O[C@@H]5CO[C@@H](C)O[C@H]5[C@H](O)[C@H]3O)[C@H]3COC(=O)[C@H]23)OCO4)cc(OC)c1O [ETOPOSIDE]"
measurement = 1.3

[[record]]
compound = "CC1=CCC[C@H]2[C@@]1(C)[C@@H](OC(=O)c1cccnc1)[C@H](OC(=O)c1ccccc1)[C@](C)(O)[C@]2(C)[C@H]1CC2=C(O1)C(=O)OC2"
measurement = 2.8

[[record]]
compound = "CC(=O)O[C@H]1[C@H](OC(=O)c2cccnc2)[C@](C)(O)[C@](C)(/C=C/C2=CC(=O)OC2)[C@H]2CCC=C(C)[C@]12C"
measurement = 3.2

[[record]]
compound = "C=C1CCC[C@H]2[C@@]1(C)[C@@H](OC(=O)c1ccccc1)[C@H](O)[C@]1(C)O[C@@]3(COC(=O)C3)C[C@H](OC(=O)c3cccnc3)[C@]21C"
measurement = 2.9

